Values were extracted from PubChem BioAssay (NCATS).

Biological target: Calcium and integrin-binding protein 1 (Homo sapiens) (UniProt Q99828)
Sequence (Q99828 whole entry, looked up): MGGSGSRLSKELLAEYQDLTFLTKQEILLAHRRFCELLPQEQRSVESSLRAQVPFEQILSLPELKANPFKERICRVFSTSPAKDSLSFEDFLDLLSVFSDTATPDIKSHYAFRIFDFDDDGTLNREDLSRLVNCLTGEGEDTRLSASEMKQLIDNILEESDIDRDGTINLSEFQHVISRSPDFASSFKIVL
Assay: Primary qHTS for Identification of Calcium Integrin Binding Protein 1 (CIB1) Competitor (AID 1508620)
Conditions: CIB1-GST / FITC-alphaIIb peptide fluorescence polarization; series mostly up to 114 µM
Source text: Assay Provider: Ulhas P. Naik, PhD Sidney Kimmel Medical College Thomas Jefferson University, Philadelphia, PA Primary function of platelets is to maintain hemostasis. At the site of vascular injury, platelets adhere to adhesive proteins such as collagen and von Willebrand factor. […] PROTOCOL TABLES SEQUENCE No. (1, 2, 3, etc.); […] […] 7; ViewLux Fluorescent Polization Read: excitation = 480(20) / emission = 540(25) S and P; FITC Dichroic mirror.
Records with an inconclusive call do not appear. Activity calls are given as the source filed them. Calls come from the whole dose curve; as a rule, active = well fitted inhibition curve with a large enough effect; inconclusive = small, poorly fitted or top-dose-only effect; inactive = flat fitted curve, though single readings scatter.
Outcomes: Yes = active, No = inactive

# compound, answer-label
records = [
    ("O=C(Nc1cc(C(F)(F)F)ccc1Cl)C(O)Cc1ccccc1 (centres undefined)", "No"),
    ("CC(C)(C)NS(=O)(=O)c1cccc(-c2nnc(SCc3ccc(C(=O)O)cc3)n2-c2ccccc2)c1", "No"),
    ("Oc1ccc(CNc2ccccn2)c2cccnc12", "No"),
    ("Cc1csc(CNc2ncnc3ccc(-c4ccccc4Cl)cc23)c1", "No"),
    ("O=C(O)C1C2C(=O)N(c3ccccc3)C[C@@]23C=C[C@@H]1O3 (some centres undefined)", "No"),
    ("CC(=O)Nc1sc2c(c1-c1nc3ccccc3s1)CCN(C1COC1)C2", "Yes"),
    ("Cc1ccc(-c2ccc(CNc3nc(-c4ccccc4C(C)C)ncc3F)cc2)cn1", "No"),
    ("Cc1ccccc1C(=O)N1CCc2cc(-c3nc(NC(=O)Cc4ccc5ccccc5c4)sc3C)ccc21", "No"),
    ("Cc1cccc(S(=O)(=O)N2CCN(S(=O)(=O)c3ccc4c(c3)OCCO4)CC2)c1", "No"),
    ("O=C(Cn1cc(CNC(=O)C2CCCCC2)nn1)Nc1cc(C(F)(F)F)ccc1Cl", "No"),
    ("O=c1c2ccccc2nc2sc(Nc3ccc(Br)cc3)nn12", "No"),
    ("Cc1ccc(Nc2nc(C#N)nc(NC3CCCC3)n2)cc1", "No"),
    ("CCCCN(C)C(=O)Cn1nc(-c2ccc(F)cc2)ccc1=O", "No"),
    ("Cc1cc2c(s1)c1cnn(Cc3cc(OC(F)(F)F)ccc3F)c(=O)c1n2C", "No"),
    ("FC(F)(F)c1cccc(N2CCN(C(=S)Nc3ccncc3)CC2)c1", "No"),
    ("N#Cc1ccc(C[C@@H](NS(=O)(=O)c2ccc(C(=O)O)cc2)C(=O)O)cc1", "No"),
    ("CCn1c2cc(C)sc2c2cnn(Cc3ccccc3F)c(=O)c21", "No"),
    ("CCCn1c(-c2ccc(F)cc2)nc2c(NC3CCN(Cc4ccccc4)CC3)nc(C)nc21", "No"),
    ("CCN1CCCC1Cn1c(-c2ccccc2)nc2c(NCCOC)nc(C)nc21 (centres undefined)", "No"),
    ("Cc1ccc(OCCn2c(CCNC(=O)c3ccccn3)nc3ccccc32)cc1", "No"),
    ("Cc1ccc2nc3sc(C(=O)NC4CCCC4)cc3cc2c1", "No"),
    ("CN(Cc1ccc(-c2ccccc2)cc1)c1nc(-c2ccccc2C(F)(F)F)nc2ccccc12", "No"),
    ("Cc1cccc(-c2ccc3ncnc(N(C)Cc4ccco4)c3c2)c1", "No"),
    ("COC(=O)c1ccccc1C(=O)Nc1nc(-c2ccccc2)cs1", "No"),
    ("Cc1sc(NC(=O)Cc2ccc3c(c2)OCO3)nc1-c1ccc2c(c1)CCN2C", "No"),
    ("Cc1ccc(-c2ccc(=O)n(CC(=O)N(C)C(C)C(C)C)n2)cc1 (centres undefined)", "No"),
    ("O=S(=O)(c1ccc2c(c1)OCCO2)N1CCN(S(=O)(=O)c2ccccc2Cl)CC1", "No"),
    ("O=[S+]([O-])(/C=C/c1nc(Nc2cc(F)cc(F)c2)c2ncn(CC(F)F)c2n1)c1ccccc1", "No"),
    ("NC1CCN(c2nc(-c3ccc(Br)cc3)cs2)CC1", "No"),
    ("Cc1cc(C)nc(NC(=S)N2CCN(c3ccccc3C#N)CC2)c1", "No"),
    ("Cc1cccc(S(=O)(=O)NC2CCN(C#N)C2)c1 (centres undefined)", "No"),
    ("COc1ccc(-c2csc3ncnc(Sc4nnnn4C)c23)cc1", "No"),
    ("Nc1ncc(-c2cccc(-c3nn4c(=O)cc(N5CCNCC5)nc4s3)c2)cn1", "No"),
    ("COc1ccc(-c2nc3ccccc3c(=O)n2Cc2ccc(CNC(=O)CO)cc2)cc1COc1ccc(NC(C)=O)cc1", "No"),
]
